Data credit: ChEMBL document CHEMBL4257575

# TARGET_OR_TEST_SYSTEM: Multidrug resistance-associated protein 1 (Homo sapiens, UniProt P33527)
# Sequence (P33527 whole entry): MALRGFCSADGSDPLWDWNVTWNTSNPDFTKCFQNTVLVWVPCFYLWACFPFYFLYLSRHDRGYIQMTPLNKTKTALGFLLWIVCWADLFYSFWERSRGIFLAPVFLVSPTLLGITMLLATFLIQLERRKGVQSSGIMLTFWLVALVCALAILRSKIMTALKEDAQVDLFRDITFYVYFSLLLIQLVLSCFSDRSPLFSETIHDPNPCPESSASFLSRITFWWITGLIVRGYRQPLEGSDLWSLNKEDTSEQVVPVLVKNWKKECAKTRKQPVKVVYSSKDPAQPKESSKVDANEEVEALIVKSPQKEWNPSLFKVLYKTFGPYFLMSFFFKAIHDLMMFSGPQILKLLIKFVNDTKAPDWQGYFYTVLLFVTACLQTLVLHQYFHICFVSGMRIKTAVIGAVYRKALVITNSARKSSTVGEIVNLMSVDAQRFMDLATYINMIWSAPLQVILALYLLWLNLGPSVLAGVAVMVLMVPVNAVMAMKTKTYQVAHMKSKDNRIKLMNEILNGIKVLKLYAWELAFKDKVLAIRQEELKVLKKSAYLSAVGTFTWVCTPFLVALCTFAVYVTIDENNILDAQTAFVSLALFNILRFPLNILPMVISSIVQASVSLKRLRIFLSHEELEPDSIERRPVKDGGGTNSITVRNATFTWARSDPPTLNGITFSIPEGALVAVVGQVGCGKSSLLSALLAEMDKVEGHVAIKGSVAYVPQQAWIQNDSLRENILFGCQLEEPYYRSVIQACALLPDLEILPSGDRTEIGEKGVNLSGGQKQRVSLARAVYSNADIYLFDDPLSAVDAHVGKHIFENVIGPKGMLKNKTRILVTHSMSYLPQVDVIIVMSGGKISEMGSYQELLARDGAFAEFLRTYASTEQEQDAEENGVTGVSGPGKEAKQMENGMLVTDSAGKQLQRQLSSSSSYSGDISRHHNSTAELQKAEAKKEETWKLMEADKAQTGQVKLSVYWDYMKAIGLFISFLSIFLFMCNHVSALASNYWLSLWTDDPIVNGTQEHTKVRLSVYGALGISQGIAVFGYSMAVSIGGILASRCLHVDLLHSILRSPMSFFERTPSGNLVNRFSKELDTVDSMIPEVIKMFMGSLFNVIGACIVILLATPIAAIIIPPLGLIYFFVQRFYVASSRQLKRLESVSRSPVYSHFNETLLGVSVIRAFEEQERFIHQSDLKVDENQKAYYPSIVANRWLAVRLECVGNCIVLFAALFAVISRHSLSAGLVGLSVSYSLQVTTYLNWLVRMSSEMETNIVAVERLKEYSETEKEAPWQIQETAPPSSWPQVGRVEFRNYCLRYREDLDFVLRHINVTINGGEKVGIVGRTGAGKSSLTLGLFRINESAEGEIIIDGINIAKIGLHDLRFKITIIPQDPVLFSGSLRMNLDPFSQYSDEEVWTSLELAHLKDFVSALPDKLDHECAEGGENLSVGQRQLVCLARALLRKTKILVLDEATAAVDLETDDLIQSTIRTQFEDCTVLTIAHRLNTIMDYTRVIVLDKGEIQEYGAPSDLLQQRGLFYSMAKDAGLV
# PROCEDURE_SUMMARY: Inhibition of MRP1 in human 2008/MRP1 cells assessed as potentiation of doxorubicin-induced cytotoxicity by measuring cell survival at 2 uM after 5 days by MTS assay relative to control
# Format: cell-based
# COND: 120 h
Item-by-item account of Survival
Your answer is read as %, so omit the unit and give the number.

SMILES_TEXT	Survival, %
Cc1ccc(O)c(C(=O)/C=C/c2ccc(OCCCCc3cn(CCOCCOCCOc4ccc(-c5cc(=O)c6ccccc6o5)cc4)nn3)cc2)c1	70
COCOc1cc(OCc2ccccc2)c2c(=O)cc(-c3ccc(OCCCc4cn(CCOCCOc5ccc(-c6oc7ccccc7c(=O)c6OCc6cccc(OC)c6)cc5)nn4)cc3)oc2c1	79
O=C(/C=C/c1ccc(OCCCCc2cn(CCOCCOCCOc3ccc4c(=O)cc(-c5ccccc5)oc4c3)nn2)cc1)c1ccc(F)cc1O	67

Below: the item to evaluate.
QUERY: Write down the reported Survival (system: Multidrug resistance-associated protein 1 (Homo sapiens, UniProt P33527)) of `Cc1ccc(C(=O)/C=C/c2ccc(OCCCCc3cn(CCOCCOCCOc4ccc(-c5oc6ccccc6c(=O)c5OCc5ccccc5)cc4)nn3)cc2)c(O)c1`
RESULT: 71
